Target: Fuc(a1-2)[Gal(a1-3)]Gal(b1-4)GlcNAc(b1-2)Man(a1-3)[Fuc(a1-2)[Gal(a1-3)]Gal(b1-4)GlcNAc(b1-2)Man(a1-6)]Man(b1-4)GlcNAc(b1-4)GlcNAc
Assay: glycan array binding signal (z-score within array); higher = stronger binding
Details: glycan notation: IUPAC condensed, linker removed
The entries come from a sample that favours the strongest signals as a whole.
Catalogue of glycan array binding signal (z-score) readings, one per entry.

[
  {
    "binder": "KISKRILTGKK [NK11 (Sus scrofa)]",
    "glycan array binding signal (z-score)": 0.702
  },
  {
    "binder": "UEA-I (Ulex europaeus), P22972 (protein) SDDLSFKFKNFSQNGKDLSFQGDASVIETGVLQLNKVGNNLPDETGGIARYIAPIHIWNCNTGEVASFITSFSFFMETSANPKAATDGLTFFLAPPDSPLRRAGGYFGLFEDTKDNDSSYQTVAVEFDTIGSPVNFDDPGFPHIGIDVNRVKSINAERWNKRYGLNNVANVEIIYEASSKTLTASLTYPSDQTSISVTSIVDLKEILPEWVSVGFSGGTYIGRQATHEVLNWYFTSNLINTNS",
    "glycan array binding signal (z-score)": -0.194
  },
  {
    "binder": "GSL-I-B4 (Griffonia simplicifolia) (protein) NFWSDVEDSIIFQGDANTTAGTLQLCKTNQYGTPLQWSAGRALYSDPVQLWDNKTESVASFYTEFTFFLKITGNGPADGLAFFLAPPDSDVKDAGEYLGLFNKSTATQPSKNQVVAVEFDTWTNPNFPEPSYRHIGINVNSIVSVATKRWEDSDIFSGKIATARISYDGSAEILTVVLSYPDGSDYILSHSVDMRQNLPESVRVGISASTGNNQFLTVYILSWRFSSNLQSTSVKAAMEPEITRTVV",
    "glycan array binding signal (z-score)": 3.69
  }
]

Every entry's value here was drawn from the supplement of paper PMC8728848.
